Answer each item with its documented cytotoxicity at 10 µM.
test: Toxicity liver stage against HepG2, at 10uM; type: cell-based; parameters: test concentration 10 uM, cell line HepG2-A16-CD81EGFP; conditions: human, HepG2-A16-CD81EGFP cells; read-out: INHIBITION
// note: answer is a bare numeric in %

Query (molecule): CC(CNC(=O)c1ccc(=O)[nH]n1)N1CCc2ccccc21 (stereo not drawn) ; field requested: cytotoxicity at 10 µM
-8.93

What cytotoxicity at 10 µM value was documented for this molecule, "Cc1ccc(N2CCN(C(=O)CCc3n[nH]c(C)n3)CC2=O)cc1" ?
-4.06

Tell me the measured cytotoxicity at 10 µM of O=C1CC(c2ccccc2)c2cnn(C3CCCC3)c2N1 (stereo not drawn) , please.
1.5

Returns the measured cytotoxicity at 10 µM for the input molecule. Input: "O=C(CC1CCCC1)N1C[C@H](Oc2cccnc2)[C@H]2OCCC[C@H]21"
3.82

Consider the molecule shown here: "Oc1ccc(N2CCN(Cc3cc4c(cc3Br)OCCO4)CC2)cc1" What is its recorded cytotoxicity at 10 µM?
6.87

Please report the recorded cytotoxicity at 10 µM for CC(C)N(CCO)C(=O)C1CCC(=O)N(CCc2ccc(Cl)cc2)C1 (stereo not drawn) .
-8.27

# input molecule: "CNC(=O)CNC(=O)NCc1cc2c(s1)CCC(C)(C)C2" ; wanted: its cytotoxicity at 10 µM
4.08

I'd like to know its cytotoxicity at 10 µM. The molecule in question is COC(C(=O)N1CCCN(Cc2cscn2)CC1)c1ccccc1 (stereo not drawn)
-8.34

Fill in: cytotoxicity at 10 µM of "CCCNC(=O)CCNc1cncc(-n2nc(C)cc2C)n1" is ___
5.3

Can you share its cytotoxicity at 10 µM? I mean this molecule: O=C(c1ccc(F)c(F)c1)N1CCCC(Nc2ccc(F)cc2)C1 (stereo not drawn)
-12.1

So what does the record say about cytotoxicity at 10 µM for "O=C(C1CCOCC1)N1CC[C@@H](O)[C@@H]1Cc1ccncc1" ?
-2.36

Item "Cc1csc(CCNc2ccc(C#N)cn2)n1" has what recorded cytotoxicity at 10 µM?
0.738

If you can, please state the reported cytotoxicity at 10 µM value of CCN(CC1CN(Cc2c(C)noc2C)CCO1)c1cccnn1 (stereo not drawn) .
-7.99

Look up cytotoxicity at 10 µM: "c1ccc(CO[C@H]2CO[C@@]3(CCN(Cc4ccoc4)C3)C2)nc1"
-15.3

What measured cytotoxicity at 10 µM goes with "CCc1ccc(C(=O)NCCNc2ncccn2)cc1" ?
0.364

Item under review: CCN(CC)c1ccc(C2c3c(n[nH]c3C)N=C3COC(=O)C32)cc1 (stereo not drawn) . Reported cytotoxicity at 10 µM?
4.33

Reported cytotoxicity at 10 µM, molecule "COc1cc(N2C[C@H]3CN(C(=O)c4cnccn4)C[C@H]3C2)ncn1" : ____
-141

Find the recorded cytotoxicity at 10 µM belonging to "COc1nc2cc(C)ccc2cc1CN(C)Cc1n[nH]c2c1CCCC2" and report it.
4.03

For "CCc1nc(C(=O)NCc2ccc(N3CCNC(=O)C3)c(F)c2)c[nH]1" , what is its reported cytotoxicity at 10 µM?
-7.12

What does the data say about its cytotoxicity at 10 µM? Entry: CCn1nc(C)cc1S(=O)(=O)N1CCC2(CC(=O)NC2=O)C1 (stereo not drawn)
0.0942

Record request: cytotoxicity at 10 µM value, item "CNC(=O)c1cccc(NC(=O)CN2CCN(S(C)(=O)=O)CC2)c1"
1.82

What value of cytotoxicity at 10 µM has been reported for the following molecule? CC(=O)N1CCC(C(=O)N2CCC2c2nc(-c3ccc(C)s3)no2)CC1 (stereo not drawn)
3.15

Query: cytotoxicity at 10 µM; subject: Cc1nonc1C1CCCN1C(=O)c1cc2n(n1)CCCN(C(C)C)C2 (stereo not drawn)
-10
